Method: Liver microsome stability test
Format: in vitro ADME
Measurement Context: human liver microsomes 0.5 mg/mL, compound 1 μM, NADPH 1 mM, 60 minutes; read-out: Human Clint μL/min/mg Protein
Measured Endpoint: log10 of microsomal CLint at 1 μM (log10 of the value in µL/min/mg)
Units before log transform: µL/min/mg; reported quantity: microsomal CLint at 1 μM; transform: log10.

Examples with their reported log10 of microsomal CLint at 1 μM follow.
- Molecule: "CCc1c(N2CCN(C(=O)c3ncnc(C)c3O)CC2)c(=O)n2nc(C3=CCOCC3)nc2n1CC(=O)Nc1ccc(C(F)(F)F)c2sccc12 [Compound H13]"
  Measured Endpoint: "log10 of microsomal CLint at 1 μM"
  Reading: 0.80
- Molecule: "CCc1c(N2CCN(C(=O)c3nccc(Cl)c3O)CC2)c(=O)n2nc(C3=CCOCC3)nc2n1CC(=O)Nc1ccc(C(F)(F)F)c2ccsc12 [Compound H19]"
  Measured Endpoint: "log10 of microsomal CLint at 1 μM"
  Reading: -0.24
- Molecule: "CCc1c(N2CCN(C(=O)c3ncccc3O)CC2)c(=O)n2nc(C3=CCOCC3)nc2n1CC(=O)Nc1ccc(C(F)(F)F)c2ccsc12 [Compound H2]"
  Measured Endpoint: "log10 of microsomal CLint at 1 μM"
  Reading: 1.20
- Molecule: "CCc1c(N2CCN(C(=O)c3ncccc3O)CC2)c(=O)n2nc(N3CCOCC3)nc2n1CC(=O)Nc1ccc(C(F)(F)F)c2ccsc12 [Compound H9]"
  Measured Endpoint: "log10 of microsomal CLint at 1 μM"
  Reading: 1.01

Please look at this molecule and report its log10 of microsomal CLint at 1 μM: CCc1c(N2CCN(C(=O)c3ncnc(C)c3O)CC2)c(=O)n2nc(C3=CCOCC3)nc2n1CC(=O)Nc1ccc(Br)c2ccsc12 [Compound H15]
0.30

Please look at this molecule and report its log10 of microsomal CLint at 1 μM: CCc1c(N2CCN(C(=O)c3ncnc(C)c3O)CC2)c(=O)n2nc(C3=CCOCC3)nc2n1CC(=O)Nc1ccc(C(F)(F)F)c2scnc12 [Compound H21]
0.68

Please look at this molecule and report its log10 of microsomal CLint at 1 μM: CCc1c(N2CCN(C(=O)c3ncnc(C)c3O)CC2)c(=O)n2nc(C3=CCC(OC)CC3)nc2n1CC(=O)Nc1ccc(C(F)(F)F)c2ccsc12 (stereo not drawn) [Compound H12]
1.34

Please look at this molecule and report its log10 of microsomal CLint at 1 μM: CCc1c(N2CCN(C(=O)c3nccc(F)c3O)CC2)c(=O)n2nc(C3=CCOCC3)nc2n1CC(=O)Nc1ccc(C(F)(F)F)c2ccsc12 [Compound H20]
1.31
